Readout kind: melting point

>>> df
                                   molecule         result
0  CC(C)(C)OC(=O)n1c(-c2ccc3c(c2)C(C)(C)OC(=O)N3)ccc1[N+](=O)[O-]         125 °C
1  CC1(C)OC(=O)Nc2ccc(-c3cc(F)cc([N+](=O)[O-])c3)cc21  260 to 261 °C

Request: Give reported melting point value for `CC1(C)OC(=O)Nc2ccc(-c3cc([N+](=O)[O-])cc([N+](=O)[O-])c3)cc21`
Result: 297 to 298 °C

Request: Give reported melting point value for `CC1(C)OC(=O)Nc2ccc(-c3ccccc3Cl)cc21`
Result: 181 to 182 °C

Request: Give reported melting point value for `CC1(C)OC(=O)Nc2ccc(-c3cc(CC#N)ccc3F)cc21`
Result: 184 to 187 °C

Request: Give reported melting point value for `O=C1Nc2ccc(-c3cccc([N+](=O)[O-])c3)cc2C2(CCCCC2)O1`
Result: 245 to 246 °C

Request: Give reported melting point value for `CC1(C)OC(=O)Nc2c(F)cc(-c3csc(C#N)c3)cc21`
Result: 250 to 251 °C
